Test system: endogenous target monocytes in human PBMC
Experiment: PBMC ex vivo monocyte depletion flow cytometry assay (Example 200)
Type: cell-based
Settings: with anti-cotinine antibody (SEQ ID NO: 11/12), 18-24 hours, EC50 in molar, read-out: Ex Vivo Depletion Assay pEC50 (converted)
Reported EC50 values follow for various compounds

# compound, EC50 (nM)
data = [
    ("CC(C)N(C)[C@@H]1CC[C@H](N2CC[C@H](Nc3ncnc4ccc(C(F)(F)F)cc34)C2=O)[C@H](NC(=O)[C@H]2C[C@@H](NC(=O)CCO[C@H]3CC[C@H](OCCNC(=O)[C@H]4CC(=O)N(C)[C@@H]4c4cccnc4)CC3)C2)C1", 0.158),
    ("CC(C)N(C)[C@@H]1CC[C@H](N2CC[C@H](Nc3ncnc4ccc(C(F)(F)F)cc34)C2=O)[C@H](NC(=O)CNC(=O)[C@H]2CC[C@@H](NC(=O)CCOCCOCCNC(=O)[C@H]3CC(=O)N(C)[C@@H]3c3cccnc3)CC2)C1", 2),
    ("CCN1C(=O)C[C@H](C(=O)NCCOCCOCCOCCC(=O)N[C@H]2CC[C@@H](C(=O)N[C@@H]3C[C@H](NC(C)(C)C)CC[C@@H]3N3CC[C@H](Nc4ncnc5ccc(C(F)(F)F)cc45)C3=O)CC2)[C@H]1c1cccnc1", 0.631),
    ("CC(C)N(C)[C@@H]1CC[C@H](N2CC[C@H](Nc3ncnc4ccc(C(F)(F)F)cc34)C2=O)[C@H](NC(=O)[C@H]2CC[C@@H](NC(=O)CCCOC[C@H]3CC[C@@H](COCCNC(=O)[C@H]4CC(=O)N(C)[C@@H]4c4cccnc4)CC3)CC2)C1", 0.316),
    ("CC(C)N(C)[C@@H]1CC[C@H](N2CC[C@H](Nc3ncnc4ccc(C(F)(F)F)cc34)C2=O)[C@H](NC(=O)C2CCC(NC(=O)CCOCCNC(=O)CCOCCNC(=O)[C@H]3CC(=O)N(C)[C@@H]3c3cccnc3)CC2)C1 (stereo partly shown)", 2),
    ("CC(C)N(C)[C@@H]1CC[C@H](N2CC[C@H](Nc3ncnc4ccc(C(F)(F)F)cc34)C2=O)[C@H](NC(=O)[C@H]2CC[C@@H](CC(=O)CCCOC[C@H]3CC[C@H](COCCNC(=O)[C@H]4CC(=O)N(C)[C@@H]4c4cccnc4)CC3)CC2)C1", 0.631),
    ("CC(C)N(C)[C@@H]1CC[C@H](N2CC[C@H](Nc3ncnc4ccc(C(F)(F)F)cc34)C2=O)[C@H](NC(=O)C2CCN(C3CCN(C(=O)CCCCCNC(=O)[C@H]4CC(=O)N(C)[C@@H]4c4cccnc4)CC3)CC2)C1", 0.398),
    ("CC(C)N(C)[C@@H]1CC[C@H](N2CC[C@H](Nc3ncnc4ccc(C(F)(F)F)cc34)C2=O)[C@H](NC(=O)CCNC(=O)CCCOC[C@H]2CC[C@@H](COCCNC(=O)[C@H]3CC(=O)N(C)[C@@H]3c3cccnc3)CC2)C1", 0.501),
    ("CC(C)N(C)[C@@H]1CC[C@H](N2CC[C@H](Nc3ncnc4ccc(C(F)(F)F)cc34)C2=O)[C@H](NC(=O)CCOCCNC(=O)[C@H]2CC[C@@H](NC(=O)COCCNC(=O)[C@H]3CC(=O)N(C)[C@@H]3c3cccnc3)CC2)C1", 0.2),
    ("CC(C)N(C)[C@@H]1CC[C@H](N2CC[C@H](Nc3ncnc4ccc(C(F)(F)F)cc34)C2=O)[C@H](NC(=O)C2CCC3(CC2)CCN(CCOCCOCCNC(=O)[C@H]2CC(=O)N(C)[C@@H]2c2cccnc2)CC3)C1", 126),
    ("CN1C(=O)C[C@H](C(=O)NCCOCC(=O)NCCOCC(=O)NCCOCCC(=O)N[C@@H]2C[C@H](NC(C)(C)C)CC[C@@H]2N2CC[C@H](Nc3ncnc4ccc(C(F)(F)F)cc34)C2=O)[C@H]1c1cccnc1", 100000),
    ("CC(C)N(C)[C@@H]1CC[C@H](N2CC[C@H](Nc3ncnc4ccc(C(F)(F)F)cc34)C2=O)[C@H](NC(=O)[C@H]2C[C@@H](NC(=O)CCOC[C@H]3CC[C@H](COCCNC(=O)[C@H]4CC(=O)N(C)[C@@H]4c4cccnc4)CC3)C2)C1", 0.126),
    ("CC(C)N(C)[C@@H]1CC[C@H](N2CC[C@H](Nc3ncnc4ccc(C(F)(F)F)cc34)C2=O)[C@H](NC(=O)[C@H]2CC[C@@H](NC(=O)CCCOCCCCOCCNC(=O)[C@H]3CC(=O)N(C)[C@@H]3c3cccnc3)CC2)C1", 0.794),
    ("CC(C)N(C)[C@@H]1CC[C@H](N2CC[C@H](Nc3ncnc4ccc(C(F)(F)F)cc34)C2=O)[C@H](NC(=O)c2cccc(NCCOCCOCCOCCOCCNC(=O)[C@H]3CC(=O)N(C)[C@@H]3c3cccnc3)n2)C1", 15.8),
    ("CC(C)N(C)[C@@H]1CC[C@H](N2CC[C@H](Nc3ncnc4ccc(C(F)(F)F)cc34)C2=O)[C@H](NC(=O)[C@H]2CC[C@H](NC(=O)CCOCCOCCOCCNC(=O)[C@H]3CC(=O)N(C)[C@@H]3c3cccnc3)CC2)C1", 2.51),
    ("CC(C)N(C)[C@@H]1CC[C@H](N2CC[C@H](Nc3ncnc4ccc(C(F)(F)F)cc34)C2=O)[C@H](NC(=O)CCOCCNC(=O)CCOCCNC(=O)COCCNC(=O)[C@H]2CC(=O)N(C)[C@@H]2c2cccnc2)C1", 0.398),
]
